B1: glmS ribozyme (parent)
chain: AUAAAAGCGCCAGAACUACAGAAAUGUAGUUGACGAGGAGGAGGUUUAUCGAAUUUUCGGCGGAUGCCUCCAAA

variants of: B1; assay: self-cleavage kobs at 2500 uM GlcN6P; higher = faster cleavage; RNA array; details: with glucosamine-6-phosphate
This sample holds only a part of the variants without activity.
reportedProperty: self-cleavage kobs at 2500 uM GlcN6P

Recorded self-cleavage kobs at 2500 uM GlcN6P, per entry:
>>> df
                 mutationid                      reportedproperty       result
0        C8A A12C A33U A64G  self-cleavage kobs at 2500 uM GlcN6P  < 1e-05 s⁻¹
1            G43U G66U C71G  self-cleavage kobs at 2500 uM GlcN6P  < 1e-05 s⁻¹
2                  G9C U49A  self-cleavage kobs at 2500 uM GlcN6P  < 1e-05 s⁻¹
3        C8A C10U A39G U57C  self-cleavage kobs at 2500 uM GlcN6P  < 1e-05 s⁻¹
4  G29A G32C C34A A48G U57A  self-cleavage kobs at 2500 uM GlcN6P  < 1e-05 s⁻¹
5                 G44A U47C  self-cleavage kobs at 2500 uM GlcN6P  < 1e-05 s⁻¹

// query State its self-cleavage kobs at 2500 uM GlcN6P for this variant: G9U A12C A14C A48G U49A
// result < 1e-05 s⁻¹

// query Write down self-cleavage kobs at 2500 uM GlcN6P measured for item G7U U31A
// result < 1e-05 s⁻¹

// query Hello, please tell me recorded self-cleavage kobs at 2500 uM GlcN6P for this one: C10U G41U
// result < 1e-05 s⁻¹
